- Protocol text: JC-1 mitochondrial signal, unstimulated myeloma cells – cell-based, JC-1 fluorescence, RPMI8226, 24 h, 100 nL compound, profiling panel (AID 1169); further: test concentration not given here
- Reported conditions: JC-1 mitochondrial potential fluorescence, higher = more signal
# Lookup of reported z-score keyed by entry
Recorded endpoint: z-score

{"Compound": "CN(C)CCCC[C@@H]1NC(=O)[C@H]2C[C@@H](C(=O)NCCCCCNC(=O)CS)[C@@H](c3ccc(O)cc3)N2C1=O", "Recorded endpoint": "z-score", "Result": -0.319}
{"Compound": "COC(=O)[C@@]1(Cc2ccc(F)cc2)[C@H]2c3cc(C(=O)N(C)C)n(Cc4ccccn4)c3C[C@H]2CN1C(=O)c1ccccc1", "Recorded endpoint": "z-score", "Result": -0.715}
{"Compound": "O=C1OCC=C[C@H]2OC34C=CCN(Cc5ccccc5)C(=O)[C@H]3N(CCCO)C(=O)[C@@H]4[C@@H]12 (some centres undefined)", "Recorded endpoint": "z-score", "Result": 0.242}
{"Compound": "CCCNC(=O)[C@@]1(C)c2ccccc2C(=O)N(C(C)C)[C@H]1c1ccc(CO)cc1", "Recorded endpoint": "z-score", "Result": 0.0976}

* * *

- Protocol text: optical density change of DRC41 E. coli – strain DRC41, OD650, 24 h, E. coli filamentation project, primary screen (AID 1093);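 further: MC1000 strain lacking acrAB efflux and sulA so SOS filamentation is blocked; test concentration not given here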
- Reported conditions: E. coli DRC41 growth, higher = more signal, called active from +8 up or from −8 down
Tag: condition met if measured z-score is not below 0.0006, condition not met if it is.

{"Compound": "CC(C)(C)OC(=O)CC[C@@]1(C(=O)NCC(O)CO)N=C(c2ccc(OCCCO)cc2)O[C@@H]1c1ccccc1 (some centres undefined)", "Answer label": "condition not met"}
{"Compound": "O=C(NCC(O)CO)[C@@]1(Cc2ccccc2)COC(c2ccc(OCCCO)cc2)=N1 (some centres undefined)", "Answer label": "condition met"}
{"Compound": "Oc1ccc2cc[n+](Cc3cccc(OC(F)(F)F)c3)cc2c1", "Answer label": "condition met"}
{"Compound": "O=C1O[C@@H](c2ccccc2)[C@@H](c2ccccc2)N2[C@@H](c3ccc(O)cc3)[C@]3(C(=O)Nc4ccccc43)[C@@H](C(=O)NC[C@H](O)c3ccccc3)[C@H]12", "Answer label": "condition met"}
{"Compound": "CO[C@H]1O[C@H](CO)[C@@H](OC(=O)Nc2cccc(F)c2)[C@H](OC(=O)Nc2ccccc2-c2ccccc2)[C@@H]1OC(=O)Nc1ccccc1-c1ccccc1", "Answer label": "condition met"}
{"Compound": "CN(C)CCCN1C(=O)[C@@]2(c3ccc([N+](=O)[O-])cc3)CC(=O)N(C3CCCCC3)[C@@H]2c2ccc(CO)cc21", "Answer label": "condition not met"}
{"Compound": "C=C[C@H](C)[C@H](O)c1ccc(OCCO)cc1", "Answer label": "condition met"}
{"Compound": "CN(C)CCCCCCNC(=O)[C@@H]1C[C@@H]2C(=O)NCC(=O)N2[C@@H]1c1cccc(OCCO)c1", "Answer label": "condition met"}
{"Compound": "COCCCNC(=O)[C@]1(Cc2ccccc2N=[N+]=[N-])N=C(c2ccc(OCCCO)cc2)O[C@@H]1c1ccccc1CN=[N+]=[N-]", "Answer label": "condition met"}
{"Compound": "C=CCCN(CC#C[C@H]1Oc2ccccc2S(=O)(=O)N2CCC[C@@H]12)S(=O)(=O)c1ccc(C)cc1", "Answer label": "condition not met"}
{"Compound": "CCCC[C@@H]1C[C@H]1[C@@H](NC(=O)c1ccccc1)c1ccccc1", "Answer label": "condition not met"}
{"Compound": "C=CCN1Cc2ccccc2C[C@@]2(COC(c3ccc(OCCCO)cc3)=N2)C1=O", "Answer label": "condition met"}
{"Compound": "COCCOC(=O)N1C(=O)[C@@]2(c3cc(C#CC4(O)CCCCCC4)ccc31)[C@H](c1ccc(O)cc1)N1[C@H](c3ccccc3)[C@H](c3ccccc3)OC(=O)[C@H]1[C@@H]2C(=O)N1CCc2cc(OC)c(OC)cc2C1", "Answer label": "condition met"}
{"Compound": "CO[C@H]1O[C@H](CO)[C@@H](OC(=O)Nc2ccc3c(c2)OCO3)[C@H](OC(=O)Nc2ccc3c(c2)OCO3)[C@H]1OC(=O)Nc1ccc2c(c1)OCO2", "Answer label": "condition met"}
{"Compound": "COC(=O)[C@@]1(Cc2ccccc2)[C@H]2c3cc(C(=O)N(C)C)n(Cc4ccccc4)c3C[C@H]2CN1C(=O)c1ccccc1", "Answer label": "condition not met"}
{"Compound": "O=C(CS)NCCCCCNC(=O)[C@H]1C[C@H]2C(=O)N[C@@H](Cc3ccccc3)C(=O)N2[C@H]1c1cccc(OCCO)c1", "Answer label": "condition met"}
{"Compound": "CC(C)C(CO)N1C(=O)[C@@H]2[C@H]3C(=O)OCC=C[C@H]3OC23C=CCN(c2ccc4ccccc4c2)C(=O)[C@@H]13 (some centres undefined)", "Answer label": "condition met"}
{"Compound": "CN(C)CCCC[C@@H]1NC(=O)[C@@H]2C[C@H](C(=O)NCCCCCCN)[C@H](c3ccc(O)cc3)N2C1=O", "Answer label": "condition not met"}
{"Compound": "COC(=O)[C@@]1(Cc2ccc(F)cc2)[C@H]2c3cc(C(=O)N(C)C)n(Cc4ccccn4)c3C[C@H]2CN1C(=O)c1ccccc1", "Answer label": "condition not met"}
{"Compound": "COC(=O)[C@@]1(Cc2ccc(F)cc2)[C@H]2c3cc(C(=O)N4CCCC4)n(Cc4ccc(Cl)c(C(F)(F)F)c4)c3C[C@H]2CN1C(=O)c1ccccc1", "Answer label": "condition not met"}
{"Compound": "CC(C)(C)OC(=O)CC[C@@]1(C(=O)N2CCOCC2)N=C(c2ccc(OCCCO)cc2)O[C@@H]1c1ccccc1N=[N+]=[N-]", "Answer label": "condition met"}
{"Compound": "C=C(/C(=C/C[C@@H](OC(C)=O)c1ccc(CO)o1)c1cnc2ccccc2c1)C(C)C", "Answer label": "condition met"}
{"Compound": "O=C1C[C@@](C(=O)O)(c2ccc([N+](=O)[O-])cc2)[C@@H](c2ccc(CO)cc2I)N1CC12CC3CC(CC(C3)C1)C2", "Answer label": "condition met"}
{"Compound": "O=C(NCc1ccccc1)[C@@H]1c2ccccc2C(=O)N(C2CCCCC2)[C@H]1c1ccc(CO)cc1", "Answer label": "condition not met"}
{"Compound": "Cc1ccc(S[C@]2(C(=O)NCCCN(C)C)CC(=O)N(C(C)C)[C@@H]2c2ccc(CO)cc2I)cc1", "Answer label": "condition met"}
{"Compound": "COCCOC(=O)N1C(=O)[C@@]2(c3cc(C#CCC(C(=O)OC)C(=O)OC)ccc31)[C@H](c1ccc(OCCO)cc1)N1[C@H](c3ccccc3)[C@H](c3ccccc3)OC(=O)[C@H]1[C@@H]2C(=O)NC[C@H](O)c1ccccc1", "Answer label": "condition met"}
{"Compound": "O=C1C2C=CC(C(O)CCc3ccccc3)N(Nc3ccccc3)C2C(=O)N1c1ccccc1 (centres undefined)", "Answer label": "condition not met"}
{"Compound": "CCOC(=O)C[C@H]1[C@H](OC(=O)c2cc3ccccc3oc2=O)[C@@H](NC(=O)c2ccc3ccccc3c2)c2cc(OCCCO)ccc2N1C(=O)c1ccccc1", "Answer label": "condition met"}
